- tested-on: Mu-type opioid receptor (Homo sapiens, UniProt P35372)
- Sequence (P35372 whole entry): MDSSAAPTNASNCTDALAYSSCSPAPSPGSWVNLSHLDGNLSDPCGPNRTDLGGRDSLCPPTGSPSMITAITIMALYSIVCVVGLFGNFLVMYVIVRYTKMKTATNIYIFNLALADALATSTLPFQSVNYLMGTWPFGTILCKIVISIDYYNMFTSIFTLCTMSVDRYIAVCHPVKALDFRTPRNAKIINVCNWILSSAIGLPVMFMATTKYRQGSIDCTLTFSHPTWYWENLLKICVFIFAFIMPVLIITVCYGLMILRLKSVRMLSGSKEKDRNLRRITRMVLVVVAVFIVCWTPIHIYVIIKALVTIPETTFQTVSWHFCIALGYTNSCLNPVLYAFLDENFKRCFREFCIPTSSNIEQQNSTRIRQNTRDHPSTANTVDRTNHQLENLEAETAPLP
- test-protocol: Agonist activity at human Gi/G0-coupled mu opioid receptor expressed in human U2OS cells co-expressing EA-tagged beta-arrestin2 assessed as beta-arrestin 2 recruitment by PathHunter assay
value-kind: pEC50
In plain terms, pEC50 is the concentration in mol/L turned into minus its base-10 logarithm.

Request: Please indicate pEC50 recorded for CCN1Cc2ccccc2CN2CC[C@@]1(c1ccccc1)C2
Result: 5.40

Request: Entry CCCN1Cc2ccccc2CN2CCC1(c1ccccc1)C2 (racemic) needs its pEC50 filled in; supply it.
Result: 6.15

Request: Consider the compound CN1Cc2ccccc2CN2CC[C@]1(c1ccccc1)C2 . State its measured pEC50.
Result: 5.52
